biological target: PDE4B1 (Homo sapiens); construct: purchased Sigma; test: In vitro inhibitory effect on PDE4B1 enzyme (AMP-Glo assay); format: biochemical
Sequence (Q07343 whole entry): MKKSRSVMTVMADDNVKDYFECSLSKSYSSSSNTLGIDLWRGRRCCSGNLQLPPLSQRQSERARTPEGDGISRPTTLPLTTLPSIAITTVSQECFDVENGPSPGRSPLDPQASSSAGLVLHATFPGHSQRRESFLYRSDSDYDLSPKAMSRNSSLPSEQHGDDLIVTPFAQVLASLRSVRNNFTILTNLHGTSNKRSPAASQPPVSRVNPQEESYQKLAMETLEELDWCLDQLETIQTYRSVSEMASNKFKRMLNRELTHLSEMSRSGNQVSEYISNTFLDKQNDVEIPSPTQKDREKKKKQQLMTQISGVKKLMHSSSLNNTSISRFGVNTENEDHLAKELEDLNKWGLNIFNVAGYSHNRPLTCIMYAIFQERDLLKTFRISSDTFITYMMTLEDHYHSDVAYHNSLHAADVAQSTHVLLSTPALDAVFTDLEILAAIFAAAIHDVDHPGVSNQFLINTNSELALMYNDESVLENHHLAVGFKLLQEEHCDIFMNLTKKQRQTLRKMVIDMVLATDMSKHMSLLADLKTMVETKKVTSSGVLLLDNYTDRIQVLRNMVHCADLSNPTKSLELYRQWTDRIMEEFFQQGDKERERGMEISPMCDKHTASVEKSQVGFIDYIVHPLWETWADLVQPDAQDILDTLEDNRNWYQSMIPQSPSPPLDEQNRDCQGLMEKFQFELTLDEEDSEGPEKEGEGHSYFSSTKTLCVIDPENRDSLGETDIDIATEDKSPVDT
endpoint label: pIC50
API: returns pIC50 as number; meaning -log10 of concentration in mol/L.

Answered examples (3):
{"compound": "COc1cc2c(cc1OC)S(=O)(=O)CCn1c-2cc(=Nc2c(C)cc(C)cc2C)n(CCNC(N)=O)c1=O [Compound 21]", "target or test system": "PDE4B1 (Homo sapiens)", "pIC50": 5.16}
{"compound": "COc1cc2c(cc1OC1CCOC1)CCn1c-2cc(=Nc2c(C)cc(C)cc2C)n(CCNC(N)=O)c1=O (stereo not shown) [Compound 25]", "target or test system": "PDE4B1 (Homo sapiens)", "pIC50": 6.42}
{"compound": "CCOc1cc2c(cc1OC)-c1cc(N(c3c(C)cc(C)cc3C)C3CC(NC(=O)c4c(O)nnn4C)C3)nc(=O)n1CC2 (stereo not shown) [Compound 31]", "target or test system": "PDE4B1 (Homo sapiens)", "pIC50": 6.71}

Retrieve pIC50 on PDE4B1 (Homo sapiens); query COc1cc2c(cc1OC)-c1cc(=Nc3c(C)cc(C)cc3C)n(CCNC(=O)c3cccn(C4CC4)c3=O)c(=O)n1CC2 [Compound 41]
6.60

Output reported pIC50 of the compound CCOc1cc2c(cc1OC)-c1cc(=Nc3c(C)cc(C)cc3C)n(CCNC(=O)c3cc[nH]c(=O)c3)c(=O)n1CC2 [Compound 30] on PDE4B1 (Homo sapiens).
7.58

# return pIC50 of COc1cc2c(cc1OC)-c1cc(=Nc3c(C)cc(C)cc3C)n(CCNC(N)=O)c(=O)n1CCS2 [Compound 20] (system: PDE4B1 (Homo sapiens))
6.60

GET pIC50 | system: PDE4B1 (Homo sapiens) | item: COc1cc2c(cc1OC)-c1cc(N(CCNC(=O)N3CCOCC3CO)c3c(C)cc(C)cc3C)nc(=O)n1CC2 (stereo not shown) [Compound 48]
6.24
